- Test system: LEGO organoid PT (PTEN-/-; TP53-/-)
- measurement.description: bioluminescence (viable cell) signal fold change after vs before treatment, normalised to DMSO (ratio); higher = more tumour cell growth / less inhibition
- assay.context: 10 µM; treatment time 6 days
Short version: bioluminescence at least 1 is Yes, less is No.

Please review the entries below; each comes with its answer.
compound	category.label
NC(=O)N1c2ccccc2C=Cc2ccccc21 [Carbamazepine]	No
C[C@@H]1CCN(C(=O)CC#N)C[C@@H]1N(C)c1ncnc2[nH]ccc12	Yes
CNCC[C@@H](Oc1ccccc1C)c1ccccc1.Cl [Atomoxetine hydrochloride]	No

### Prompt Please check the record Cl.O=c1n(CCCN2CCN(c3cccc(Cl)c3)CC2)nc2ccccn12 [Trazodone hydrochloride] and state if its bioluminescence is at or above 1.
### Response Yes

### Prompt Please check the record CS(=O)(=O)CCNCc1ccc(-c2ccc3ncnc(Nc4ccc(OCc5cccc(F)c5)c(Cl)c4)c3c2)o1.Cc1ccc(S(=O)(=O)O)cc1.Cc1ccc(S(=O)(=O)O)cc1 [Lapatinib Ditosylate] and state if its bioluminescence is at or above 1.
### Response Yes

---

- Test system: LEGO organoid PT (PTEN-/-; TP53-/-)
- measurement.description: bioluminescence (viable cell) signal fold change after vs before treatment, normalised to DMSO (ratio); higher = more tumour cell growth / less inhibition
- assay.context: 10 µM; treatment time 6 days
# maps each entry to its bioluminescence
Give the figure only, with no unit attached.

Please review the following examples before continuing.
                                smiles_text  data_value
0                           CCCC(CCC)C(=O)O        1.01
1  CCOc1nc2cccc(C(=O)O)c2n1Cc1ccc(-c2ccccc2-c2nn[nH]n2)cc1       0.993

### Prompt Consider the molecule "Cc1cccc(C)c1OCC(=O)N[C@@H](Cc1ccccc1)[C@@H](O)C[C@H](Cc1ccccc1)NC(=O)[C@H](C(C)C)N1CCCNC1=O" and give its recorded bioluminescence.
### Response 1.02
